- assay.details: NCI Yeast Anticancer Drug Screen. Data for the mec2-1 strain (AID 157)
- conditions.used: S. cerevisiae mec2-1 strain, stronger effect = higher value; at 50.0 µM unless noted
This is part of a sample that, as a whole, favours compounds with a hit. Of some 79,000 tested, about 15% had one in any assay.
quantity.kind: growth inhibition (%)
Number in %, nothing else.

Solved cases below.
molecule	unit.descriptor	growth inhibition
C=C1C(=O)OC2/C=C(\C)C(O)/C=C\C(C)(O)CC(OC(=O)/C(C)=C/C)C12 (stereo unspecified)	%	-37.6
Cc1cc(O)c(C)cc1O	%	5.5
O=C1c2cccc3c([N+](=O)[O-])ccc(c23)C(=O)N1Cc1cccnc1	%	99.7
COc1cccc(-c2cc(=O)c3cc(N4CCOCC4)ccc3[nH]2)c1	%	-27.9
CCOC(=O)Cc1nc(/C(C#N)=C/c2ccco2)[nH]c(=O)c1C#N	%	7.8
CCCCCCCCSC(=N)N	%	-14.1
CC(CC(=O)c1ccccc1)[N+](=O)[O-] (stereo unspecified)	%	-6.35
Cc1ccccc1S(N)(=O)=O	%	-28.1

Query: Suppose we examine the molecule CN(C)N=Nc1ccc(/C=C/C(=O)O)cc1 ; what growth inhibition value has been reported?
Reply: 4.8

Query: Suppose we examine the molecule O=C(CC1(O)C(=O)Nc2ccc(Br)cc21)c1ccc2c(c1)OCO2 (stereo unspecified) ; what growth inhibition value has been reported?
Reply: 5.35

Query: Suppose we examine the molecule O=C1c2ccccc2C(=O)N1CCS(=O)(=O)O ; what growth inhibition value has been reported?
Reply: 18.1

---

- assay.details: NCI Yeast Anticancer Drug Screen. Data for the bub3 strain (AID 167)
- conditions.used: S. cerevisiae bub3 mutant strain, stronger effect = higher value; at 50.0 µM unless noted
Compounds without any hit were thinned out: in the full panel of roughly 79,000, 15% have a hit.
quantity.kind: growth inhibition (%)
Number in %, nothing else.

Solved cases below.
compound	growth inhibition / %
N#Cc1nc(C2CC2)oc1N	-25.2
Cc1ccc2c(c1)C(C)(C)C(C)(C)C2(C)C	3.8

Query: Suppose we examine the compound [N-]=[N+]=Nc1cccc(-c2n[nH]c(Cl)cc2=O)c1 ; what growth inhibition value has been reported?
Reply: -10.9

Query: Suppose we examine the compound CCCCN=C(N)C(N)=NCCCC ; what growth inhibition value has been reported?
Reply: 0.5

Query: Suppose we examine the compound NCC1COC(c2ccccc2)(c2ccccc2)O1 (stereo not drawn) ; what growth inhibition value has been reported?
Reply: 17.8

Query: Suppose we examine the compound O=C(O)c1cc(C(=O)C(=O)c2cc(C(=O)O)c(O)c3ccccc23)c2ccccc2c1O ; what growth inhibition value has been reported?
Reply: -17.9

Query: Suppose we examine the compound CC(C)(C)C1CCC2c3c([nH]c4ccccc34)C3C(=O)N(c4cc(Br)cc(Br)c4)C(=O)C3C2C1 (stereo not drawn) ; what growth inhibition value has been reported?
Reply: 21.8

---

- assay.details: NCI Yeast Anticancer Drug Screen. Data for the mec2-1 strain (AID 157)
- conditions.used: S. cerevisiae mec2-1 strain, stronger effect = higher value; at 50.0 µM unless noted
Compounds without any hit were thinned out: in the full panel of roughly 79,000, 15% have a hit.
quantity.kind: growth inhibition (%)
Number in %, nothing else.

Solved cases below.
compound	quantity.kind	unit.descriptor	recorded.measurement
O=C(O)C(F)(F)C(F)(F)C(F)(F)F	growth inhibition	%	-2.3
S=C(NC1CCCCC1)SSSC(=S)NC1CCCCC1	growth inhibition	%	-4.65
O=C(CCCl)Nc1ccc(C(=O)CCc2cccc(NC(=O)CCCl)c2)cc1	growth inhibition	%	2.65
COc1ccc(COC(=O)Nc2ccc(Br)cc2)c(OC)c1	growth inhibition	%	33.6
Cc1ccc(C(=O)/C=C/c2cccc3ccccc23)cc1	growth inhibition	%	3.65

Query: Suppose we examine the compound COC(=O)c1cc(-c2ccc(N)cc2)n2c(N)nnc2n1 ; what growth inhibition value has been reported?
Reply: 23.4

---

- assay.details: NCI Yeast Anticancer Drug Screen. Data for the mec2-1 strain (AID 157)
- conditions.used: S. cerevisiae mec2-1 strain, stronger effect = higher value; at 50.0 µM unless noted
This is part of a sample that, as a whole, favours compounds with a hit. Of some 79,000 tested, about 15% had one in any assay.
Parameter: growth inhibition. Scope: all listed entries.
Number in %, nothing else.

Solved cases below.
compound	recorded.measurement
COc1cc(CNc2nc3ccc(C(F)(F)F)cc3nc2-c2ccccc2)cc(OC)c1OC	-3.05
CN(C)c1ccc(S(=O)(=O)OC2C(C3COC(C)(C)O3)OC3OC(C)(C)OC32)cc1 (stereo not drawn)	0.75
CCCCN1C(=O)NC(Cc2ccccc2)C1=O (stereo not drawn)	-1.35
CN(C)Cc1ccccc1CC1(O)CCCC1	-2.75

Query: Suppose we examine the compound C[N+]1(Cc2csc(-c3ccc(Cl)cc3)n2)CCCC1 ; what growth inhibition value has been reported?
Reply: -23.1

Query: Suppose we examine the compound O=C(Nc1ccc(S(=O)(=O)NC2CCCCC2)cc1)Oc1ccccc1C(=O)O ; what growth inhibition value has been reported?
Reply: -1.65

Query: Suppose we examine the compound O=C(OC1CCCCCCC1OC(=O)c1ccc([N+](=O)[O-])cc1)c1ccc([N+](=O)[O-])cc1 (stereo not drawn) ; what growth inhibition value has been reported?
Reply: 1.85

---

Parameter: growth inhibition. Scope: all listed entries.
- assay.details: NCI Yeast Anticancer Drug Screen. Data for the rad50 strain (AID 155);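 also: 0% = growth of vehicle-only cultures of the same strain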
- conditions.used: S. cerevisiae rad50 strain growth inhibition, stronger effect = higher value; at 50.0 µM unless noted
- Method: Growth inhibition of yeast strains with defined genetic alterations is measured as a screen for potential anti-cancer activity. Selected strains with alterations in DNA damage repair or cell cycle control were exposed to compounds and growth inhibition was measured relative to vehicle treated controls. The strain used in this assay is rad50
Compounds without any hit were thinned out: in the full panel of roughly 79,000, 15% have a hit.
Number in %, nothing else.

Solved cases below.
molecule	quantity.kind	recorded.measurement
CC(O)C(O)CC(/C=N/NC(=O)c1ccccc1)=N/NC(=O)c1ccccc1 (stereo unspecified)	growth inhibition	3.55
CCCCCCCCCCCCCCCOc1ccc(OCCCCCCCCCCCC)cc1	growth inhibition	37.8
CCCCOC(=O)/C=C/C(=O)OCCCC	growth inhibition	-34.6

Query: Suppose we examine the molecule COc1ccc(/C(CC2OC(=O)c3ccccc32)=N\NC(=O)C[N+](C)(C)C)cc1 (stereo unspecified) ; what growth inhibition value has been reported?
Reply: 6.1

Query: Suppose we examine the molecule O=[N+]([O-])c1ccc(S/N=C\c2ccccc2)c([N+](=O)[O-])c1 ; what growth inhibition value has been reported?
Reply: -9.95

Query: Suppose we examine the molecule O=C(Nc1ccc(-c2cn3ccccc3n2)cc1)c1ccccc1O ; what growth inhibition value has been reported?
Reply: 7.7

---

- assay.details: NCI Yeast Anticancer Drug Screen. Data for the mlh1 rad18 strain (AID 175)
- conditions.used: S. cerevisiae mlh1 rad18 strain growth inhibition, stronger effect = higher value; at 50.0 µM unless noted
This is part of a sample that, as a whole, favours compounds with a hit. Of some 79,000 tested, about 15% had one in any assay.
Parameter: growth inhibition. Scope: all listed entries.
Number in %, nothing else.

Solved cases below.
molecule	growth inhibition / %
CCCCS(=O)/C=C\S(=O)CCCC (stereo not given)	1.6
Cc1[nH]c(=O)nc2nc3ccc(Cl)cc3c(N(CCO)CCO)c12	-8.7

Query: Suppose we examine the molecule O=C(NC(=O)c1ccccc1)Oc1cccc2ccccc12 ; what growth inhibition value has been reported?
Reply: 22.8

Query: Suppose we examine the molecule O=[N+]([O-])c1ccc(/C(=C\c2ccc(-c3ccccc3)o2)S(=O)(=O)c2ccccc2)o1 ; what growth inhibition value has been reported?
Reply: 2.25

Query: Suppose we examine the molecule Cc1nc2ccccc2c2ccc([N+](=O)[O-])cc12 ; what growth inhibition value has been reported?
Reply: 12.3

Query: Suppose we examine the molecule CC(=O)CC(=O)N1CCc2ccccc21 ; what growth inhibition value has been reported?
Reply: 1.1

Query: Suppose we examine the molecule CC(=O)C1=CC2(OC3CCC(O)(C(=O)CO)C(C)O3)C(=O)c3c(cc4cccc(O)c4c3O)CC2C(O)C1O (stereo not given) ; what growth inhibition value has been reported?
Reply: 9.65

Query: Suppose we examine the molecule COc1ccc(C)cc1S(=O)(=O)c1ccc(Cl)cc1[N+](=O)[O-] ; what growth inhibition value has been reported?
Reply: -25.1

Query: Suppose we examine the molecule NC(=O)C1(N2CCCC2)CCN(Cc2ccccc2)CC1 ; what growth inhibition value has been reported?
Reply: -15.8

Query: Suppose we examine the molecule C[N+]12CCCCC1C(CN1C(=O)c3ccccc3C1=O)CCC2 (stereo not given) ; what growth inhibition value has been reported?
Reply: -40

---

- assay.details: NCI Yeast Anticancer Drug Screen. Data for the sgs1 mgt1 strain (AID 161);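 also: 0% = growth of cultures given vehicle only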
- conditions.used: S. cerevisiae sgs1 mgt1 strain, stronger effect = higher value; at 50.0 µM unless noted
Compounds without any hit were thinned out: in the full panel of roughly 79,000, 15% have a hit.
quantity.kind: growth inhibition (%)
Number in %, nothing else.

Solved cases below.
compound	unit.descriptor	recorded.measurement
O=C1c2ccccc2C(=O)N1CCCCCCS(=O)(=O)Cl	%	-2.75
C/C(=C/CC1=C(O)c2ccccc2C(=O)C1=O)CO	%	51.7
Cc1ccc(Nc2nc(N)nc3c2ncn3C2OC(CO)C(O)C2O)cc1 (stereo not drawn)	%	7.85

Query: Suppose we examine the compound CCOC(=S)Nc1ccccc1[N+](=O)[O-] ; what growth inhibition value has been reported?
Reply: 0.05

Query: Suppose we examine the compound O=[N+]([O-])c1cccc(S/N=C/c2ccccc2O)c1 ; what growth inhibition value has been reported?
Reply: 99.2

Query: Suppose we examine the compound COC1OC2COc3ccccc3OC2C2C1N2C(N)=O (stereo not drawn) ; what growth inhibition value has been reported?
Reply: 4.5
